Biological target: Bromodomain-containing protein 4 (Homo sapiens)
Assay: Inhibition of recombinant BRD4 (unknown origin) incubated for 120 mins by TR-FRET assay relative to control
Parameters: concentration or dose not given beside the values
QUANTITY KIND: inhibition (%)

| INPUT SMILES | QUANTITY KIND | READOUT VALUE |
| --- | --- | --- |
| COc1cc2c(cc1-c1c(C)noc1C)[nH]c1ncnc(NCCCCCC(=O)NO)c12 | inhibition | 64.7 |
| COc1cc2c(cc1-c1c(C)noc1C)[nH]c1nc(C)nc(NCCCCCCC(=O)NO)c12 | inhibition | 91.7 |
| COc1cc2c(cc1-c1c(C)noc1C)[nH]c1nc(C)nc(Nc3ccc(/C=C/C(=O)NO)cc3)c12 | inhibition | 55.2 |
| COc1cc2c(cc1-c1c(C)noc1C)[nH]c1nc(C)nc(Nc3ccc(C(=O)NO)cc3)c12 | inhibition | 79.8 |
| COc1cc2c(cc1-c1c(C)noc1C)[nH]c1ncnc(NCCCCCCCC(=O)NO)c12 | inhibition | 85.8 |
| COc1cc2c(cc1-c1c(C)noc1C)[nH]c1nc(C)nc(NCCCCCC(=O)NO)c12 | inhibition | 90.8 |
| COc1cc2c(cc1-c1c(C)noc1C)[nH]c1nc(C)nc(Nc3cccc(C(=O)NO)c3)c12 | inhibition | 14.8 |
| COc1cc2c(cc1-c1c(C)noc1C)[nH]c1ncnc(NCCCCC(=O)NO)c12 | inhibition | 11.1 |
| COc1cc2c(cc1-c1c(C)noc1C)[nH]c1ncnc(NCCCCCC(=O)Nc3ccc(/C=C/C(=O)NO)cc3)c12 | inhibition | 56.1 |
